- TARGET_DESC: T1, human TREM2 (human, UniProt Q9NZC2 19-174, limits assumed)
- T1 construct: also called triggering receptor expressed on myeloid cells 2
- T1 sequence: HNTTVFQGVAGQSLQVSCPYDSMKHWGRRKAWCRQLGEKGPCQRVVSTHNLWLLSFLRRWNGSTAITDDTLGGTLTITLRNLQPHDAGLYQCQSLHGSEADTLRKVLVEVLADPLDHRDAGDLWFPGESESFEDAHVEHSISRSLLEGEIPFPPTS
- ASSAY_TEXT: 2nd screen, 100 nM
TEST_READOUT: Binding Signal

// returns reported Binding Signal for input V68 (antibody, V domains shown, also called 6E7 variant V68) VH: EVQLVQSGAEVKKPGESLKISCKGSGYSFTSYWIAWVRQMPGKGLEWMGIIYPGDSDTRYSPSFQGQVTISADKSISTAYLQWSSLKASDTAMYFCARQRTFRYDSSDYFDYWGQGTLVTVSS VL: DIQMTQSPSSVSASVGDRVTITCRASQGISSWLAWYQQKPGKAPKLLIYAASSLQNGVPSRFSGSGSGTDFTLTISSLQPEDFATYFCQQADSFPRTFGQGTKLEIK
0.43 fold over 6E7 parental antibody

Hello, the source for this data is patent US20250326839A1, in case you need it.
